# protocol-summary: Storage Capacity Loss Test
# Type: physicochemical
# condition-info: Sample Age 24 Hrs
assay-metric: Min/Eq BT (Min/Eq)

[[record]]
compound = "CCNC(O)C(O)NCC (centres unmarked)"
assay_metric = "Min/Eq BT"
numeric_value = 436

[[record]]
compound = "CC(O)CNC(O)C(O)NCC(C)O (centres unmarked)"
assay_metric = "Min/Eq BT"
numeric_value = 444

[[record]]
compound = "CNC(O)C(O)NC (centres unmarked)"
assay_metric = "Min/Eq BT"
numeric_value = 301

[[record]]
compound = "CC(C)NC(O)C(O)NC(C)C (centres unmarked)"
assay_metric = "Min/Eq BT"
numeric_value = 528

[[record]]
compound = "CCCNC(O)C(O)NCCC (centres unmarked)"
assay_metric = "Min/Eq BT"
numeric_value = 501


---

# protocol-summary: Hot Spray Fouling Test
# Format: physicochemical
# condition-info: Table 5; glyoxy alkyl diaminol in water and MeOH only
assay-metric: Hot Spray Fouling

[[record]]
compound = "CNC(O)C(O)NC (centres unmarked)"
assay_metric = "Hot Spray Fouling"
result = "Fail"

[[record]]
compound = "CCNC(O)C(O)NCC (centres unmarked)"
assay_metric = "Hot Spray Fouling"
result = "Fail"

[[record]]
compound = "CC(O)CNC(O)C(O)NCC(C)O (centres unmarked)"
assay_metric = "Hot Spray Fouling"
result = "Fail"

[[record]]
compound = "CC(C)NC(O)C(O)NC(C)C (centres unmarked)"
assay_metric = "Hot Spray Fouling"
result = "Fail"

[[record]]
compound = "CCCNC(O)C(O)NCCC (centres unmarked)"
assay_metric = "Hot Spray Fouling"
result = "Fail"


---

# protocol-summary: Storage Capacity Loss Test
# Format: physicochemical
# condition-info: Sample Age 72 Hrs
assay-metric: Min/Eq BT (Min/Eq)

[[record]]
molecule = "CC(O)CNC(O)C(O)NCC(C)O (centres unmarked)"
assay_metric = "Min/Eq BT"
numeric_value = 148

[[record]]
molecule = "CCCNC(O)C(O)NCCC (centres unmarked) [n-Pr]"
assay_metric = "Min/Eq BT"
numeric_value = 224

[[record]]
molecule = "CCNC(O)C(O)NCC (centres unmarked) [Et]"
assay_metric = "Min/Eq BT"
numeric_value = 236

[[record]]
molecule = "CC(C)NC(O)C(O)NC(C)C (centres unmarked) [GIDA]"
assay_metric = "Min/Eq BT"
numeric_value = 541

[[record]]
molecule = "CNC(O)C(O)NC (centres unmarked) [Me]"
assay_metric = "Min/Eq BT"
numeric_value = 197

